Recorded values, source ChEMBL document CHEMBL3112444.

Assay: Cytotoxicity against human SJ-G2 cells assessed as growth inhibition at 25 uM after 72 hrs by MTT assay relative to control
Type: functional
Condition Info: SJ-G2, 72 h, read-out: GI
Measured Quantity: inhibition of growth at 25 µM

- Compound: "Nc1ncc(/C=C/CNC(=O)c2cc(Br)c(Br)[nH]2)[nH]1 [OROIDIN]"
  Result: "< 0%"
- Compound: "O=C(NCc1ccc(Cl)cc1)c1ccc[nH]1"
  Result: "< 0%"
- Compound: "CCc1ccc(CCNC(=O)c2ccc[nH]2)cc1"
  Result: "< 0%"
- Compound: "O=C(NCCc1ccc2ccccc2c1)c1ccc[nH]1"
  Result: "8%"
- Compound: "COc1ccc(CNC(=O)c2cc(Br)c(Br)[nH]2)cc1"
  Result: "4%"
- Compound: "O=C(NCc1ccc(-c2ccccc2)cc1)c1ccc[nH]1"
  Result: "33%"
- Compound: "Cc1nccn1CCCNC(=O)c1cc(Br)c(Br)[nH]1"
  Result: "10%"
- Compound: "O=C(NCCCCc1ccccc1)c1cc(Br)c(Br)[nH]1"
  Result: "14%"
- Compound: "O=C(NCCc1ccc2ccccc2c1)c1cc(Br)c(Br)[nH]1"
  Result: "10%"
- Compound: "O=C(NCCc1ccc(O)cc1)c1ccc[nH]1"
  Result: "11%"
- Compound: "O=C(NCc1ccccc1)c1cc(Br)c(Br)[nH]1"
  Result: "95%"
- Compound: "O=C(NCC(c1ccccc1)c1ccccc1)c1ccc[nH]1"
  Result: "53%"
